assay: Drug degradation in phosphate buffered saline at pH 7.4 assessed as compound hydrolysis after 48 hrs; format: physicochemical; conditions: read-out: Drug degradation
Each record here notes measured degraded at 48 h.

Take a look at these entries with their results.
- Smiles Data: "COc1cc(OC)c2c(c1Cl)O[C@]1(C2=O)C(OCc2ccccc2)=C/C(=N\\O)C[C@H]1C"
  Value Reported: "< 5%"
- Smiles Data: "COC1=C/C(=N\\O)C[C@@H](C)[C@]12Oc1c(Cl)c(OC)cc(OC)c1C2=O"
  Value Reported: "< 5%"

Now for another entry.
[ask] Quickly give me recorded degraded at 48 h for `COc1cc(OC)c2c(c1Cl)O[C@]1(C2=O)C(OCc2cccc3ccccc23)=C/C(=N\O)C[C@H]1C`
[reply] < 5%

###

tested on: V79; experiment: Cytotoxicity against Chinese hamster V79 cells; type: functional, cell-based; conditions: Cricetulus griseus
Value Kind: IC50 (µM)
Field format: number, assumed µM, no unit text.

- Smiles Data: "CCCOC1=CC(=O)C[C@@H](C)[C@]12Oc1c(Cl)c(OC)cc(OC)c1C2=O"
  System Under Test: "V79"
  IC50 [µM]: 0.7

Now for another entry.
[ask] Quickly give me recorded IC50 for `COC1=CC(=O)C[C@@H](C)[C@]12Oc1c(Cl)c(OC)cc(OC)c1C2=O`
[reply] 8

###

tested on: Trichophyton mentagrophytes; assay: Antifungal activity against Trichophyton mentagrophytes IBT 2724 after 7 days by micro broth dilution method; format: functional, organism-based; conditions: IBT 2724, 168 h
Each record here notes measured pIC50.
Remember, pIC50 is on a log scale: it is -log10 of the molar concentration.

- Smiles Data: "COc1cc(OC)c2c(c1Cl)O[C@]1(C2=O)C(OCc2ccc(C)cc2)=CC(=O)C[C@H]1C"
  System Under Test: "Trichophyton mentagrophytes"
  pIC50: 6.62
- Smiles Data: "COc1cccc(COC2=CC(=O)C[C@@H](C)[C@]23Oc2c(Cl)c(OC)cc(OC)c2C3=O)c1"
  System Under Test: "Trichophyton mentagrophytes"
  pIC50: 6.85
- Smiles Data: "COc1cc(OC)c2c(c1Cl)O[C@]1(C2=O)C(OCc2ccc(F)cc2)=CC(=O)C[C@H]1C"
  System Under Test: "Trichophyton mentagrophytes"
  pIC50: 7.39

[ask] Quickly give me recorded pIC50 for `COc1cc(OC)c2c(c1Cl)O[C@]1(C2=O)C(OC2CCCC2)=CC(=O)C[C@H]1C`
[reply] 6.62
